Reference source for all entries: PubChem BioAssay

- assay.remarks: yeast growth modulation, basal conditions, primary screen, YJM789 clinical isolate, OD600, 24 h (AID 1089);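 further: growth of clinical yeast isolate S. cerevisiae YJM 789 seeded 1000 cells per well; test concentration not given here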
- cond: S. cerevisiae YJM789 growth, higher = more signal, called active from +8 up or from −8 down
Output Yes for z-score not less than -0.4; output No otherwise.

CC[C@@H]1C=C(C(=O)O)[C@H](c2ccco2)N1S(=O)(=O)c1ccc(C)cc1	Yes
CCCC#C[Si](O[C@H](CC)c1cn([C@H](CO)Cc2ccccc2)nn1)(C(C)C)C(C)C	No
CC(=O)NCCCC[C@@H]1NC(=O)[C@@H]2C[C@H](C(=O)NCCCCN(C)C)[C@H](c3cccc(OCCO)c3)N2C1=O	No
CN1C(=O)C2C=CC(C(O)C3=C[C@H]4C[C@@H](C3)C4(C)C)N(Nc3ccccc3)C2C1=O (stereo not given in full)	Yes
COC(=O)[C@@]1(Cc2ccccc2)[C@H]2c3cc(C(=O)N4CCCC4)n(CC4CC4)c3C[C@H]2CN1C(=O)c1ccccc1	Yes
CCc1oc(CC[C@@H](CO)NC(=O)NCCn2cc(C3(O)CCCCC3)nn2)c(C(=O)OC)c1C(=O)OC	Yes
O=C1OCC=C[C@H]2OC34C=CCN(CCN5CCOCC5)C(=O)[C@H]3N(CCCO)C(=O)[C@@H]4[C@@H]12 (stereo not given in full)	Yes
C=CC[C@@]1(C(=O)N(C)C)N=C(c2ccc(OCCCO)cc2)O[C@@H]1c1ccccc1N=[N+]=[N-]	No
C=CC[C@@]1(C(=O)NCc2ccccc2)N=C(c2ccc(OCCCO)cc2)O[C@@H]1c1ccccc1N=[N+]=[N-]	Yes
C[C@]1(C(=O)NC2CC2)c2ccccc2C(=O)N(Cc2cc(C(F)(F)F)cc(C(F)(F)F)c2)[C@H]1c1ccc(CO)cc1	Yes
COC(=O)C(CC#Cc1ccc2c(c1)[C@]1(C(=O)N2)[C@H](c2ccc(O)cc2)N2[C@H](c3ccccc3)[C@H](c3ccccc3)OC(=O)[C@H]2[C@@H]1C(=O)Nc1nc2ccccc2s1)C(=O)OC	No
COC(=O)c1c(CC[C@@H](CO)NC(=O)N2CCC[C@H]2Cn2cc(-c3ccccn3)nn2)oc(C(C)=O)c1C(=O)OC	No
CCCCC(=C=CC[C@@H](O)c1ccccc1OCCO)CCO	Yes
CC(C)C(=C=CC[C@@H](O)c1ccccc1OCCO)CCO	No
C=CCOC(=O)[C@H]1[C@@H]2C(=O)O[C@@H](c3ccccc3)[C@@H](c3ccccc3)N2[C@@H](c2ccc(OCCOC(=O)[C@@H]3C[C@@H]4C(=O)N[C@@H](CCCCN(C)C)C(=O)N4[C@@H]3c3ccc(O)cc3)cc2)[C@]12C(=O)Nc1ccc(I)cc12	Yes

====

- assay.remarks: E. coli growth modulation, two-sided OD650, primary screen, E. coli filamentation project, strain DRC41, 24 h (AID 1093);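 further: MC1000 strain lacking acrAB efflux and sulA so SOS filamentation is blocked; test concentration not given here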
- cond: OD650, 24 h, higher = more signal, called active from +8 up or from −8 down
endpoint.name: z-score

NCCCCCNC(=O)[C@@H]1C[C@@H]2C(=O)NCC(=O)N2[C@@H]1c1ccc(O)cc1	-0.031
[N-]=[N+]=NCc1ccccc1[C@@H]1OC(c2ccc(OCCCO)cc2)=N[C@]1(CCS(=O)(=O)c1ccccc1)C(=O)NCc1ccccc1	-0.382
CC(C)C(=C=CC[C@@H](O)c1ccccc1OCCO)CCO	0.364
CCc1oc(CC[C@@H](CO)NC(=O)NCCn2cc(C3(O)CCCCC3)nn2)c(C(=O)OC)c1C(=O)OC	-1.2

====

- assay.remarks: E. coli acrAB mutant growth effects, primary screen, E. coli filamentation inducers, strain DRC39, OD650, 48 h (AID 1179);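 further: screen aims at cell division blockers that make cells filament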
- cond: E. coli DRC39 delta-acrAB growth, higher = more signal, called active from +8 up or from −8 down
Listing: z-score of selected compounds
endpoint.name: z-score

COc1ccc([Si](C)(C)[C@H]2[C@H](CCO)O[C@@]3(C(=O)N(Cc4ccc(N5C(=O)COc6ccccc65)cc4)c4ccccc43)[C@@H]2C)cc1	-0.288
C=CCOC(=O)[C@H]1[C@@H]2C(=O)O[C@@H](c3ccccc3)[C@@H](c3ccccc3)N2[C@@H](c2ccc(OCCOC(=O)[C@@H]3C[C@@H]4C(=O)N5CCC[C@H]5C(=O)N4[C@@H]3c3cccc(OCCO)c3)cc2)[C@]12C(=O)Nc1ccccc12	-1.5
CS(=O)(=O)CCOC(=O)C1=CC(CCCO)=CC(c2ccc(CN3CCCC3)cc2)N(Cc2cc3c(cc2Br)OCO3)C=C1C(=O)OCCS(C)(=O)=O (stereo not drawn)	0.325

====

- assay.system: Luciferin 4-monooxygenase (Photinus pyralis)
- assay.remarks: firefly luciferase enzyme inhibitors, primary screen, biochemical, luminescence, purified enzyme, 2006 set (AID 1141);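 further: cell-free assay with purified firefly luciferase at 100 ng per well in PBS; test concentration not given here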
- cond: SteadyGlo luminescence, 30 min, higher = more signal, called active from +8 up or from −8 down
Listing: z-score of selected compounds
endpoint.name: z-score

C=CCN1C(=O)[C@]2(O[C@H](CCO)[C@@H]([Si](C)(C)c3ccc(OC)cc3)[C@@H]2C)c2cc(N3C(=O)c4cccc5cccc3c45)ccc21	-0.225
CC(C)C(=C=CC[C@@H](O)c1ccccc1OCCO)CCO	-1.91
CN1C(=O)C2C=CC(C(O)C3CC=CCC3)N(NC(=O)OC(C)(C)C)C2C1=O (configuration not stated)	-0.71
COC(=O)C=C(CC(O)c1cccc(Cl)c1)OC (configuration not stated)	0.699
COc1cc2c(cc1OC)CN(C(=O)[C@@H]1[C@H]3C(=O)O[C@H](c4ccccc4)[C@H](c4ccccc4)N3[C@H](c3ccc(O)cc3)[C@@]13C(=O)Nc1ccc(C#CC4(O)CCCCCC4)cc13)CC2	-0.798
C=CCOC(=O)[C@H]1[C@@H]2C(=O)O[C@@H](c3ccccc3)[C@@H](c3ccccc3)N2[C@@H](c2ccc(OCCOC(=O)[C@H]3C[C@H]4C(=O)N5CCC[C@H]5C(=O)N4[C@H]3c3ccc(O)cc3)cc2)[C@]12C(=O)Nc1ccccc12	-0.205
O=C1OCCC/C=C\[C@H]2OC34C=CCN(Cn5nnc6ccccc65)C(=O)[C@H]3N(CCCCCCO)C(=O)[C@@H]4C12 (some centres not stated)	-0.254
CO[C@H]1O[C@H](CO)[C@@H](OC(=O)Nc2ccc(Br)cc2)[C@H](OC(=O)c2cc3ccccc3[nH]2)[C@H]1OC(=O)c1cc2ccccc2[nH]1	-1.75
CN(C)C(=O)[C@@]1(Cc2ccccc2)N=C(c2ccc(OCCCO)cc2)O[C@H]1c1ccccc1N=[N+]=[N-]	-6.45
COc1ccc(CCN2C(=O)[C@@]3(Cc4ccccc42)c2ccccc2C(=O)N(Cc2ccccc2C(F)(F)F)[C@H]3c2ccc(CO)cc2)cc1	0.642
C#CCN(Cc1ccccc1Br)C(/C=C/c1ccccc1)CO (configuration not stated)	0.0615
CN(C)C(=O)[C@]1(Cc2ccccc2CN=[N+]=[N-])N=C(c2ccc(OCCCO)cc2)O[C@@H]1c1ccccc1CN=[N+]=[N-]	-0.554
COCCOC(=O)N1C(=O)[C@@]2(c3ccccc31)[C@H](c1ccc(O)cc1)N1[C@H](c3ccccc3)[C@H](c3ccccc3)OC(=O)[C@H]1[C@@H]2C(=O)NC[C@H](O)c1ccccc1	0.733
O=C(NCc1ccccc1)[C@@]1(CCS(=O)(=O)c2ccccc2)N=C(c2ccc(OCCCO)cc2)O[C@H]1c1ccccc1	0.548
CC(C)C[C@@H]1NC(=O)[C@H]2C[C@@H](C(=O)NCCCCCCN)[C@@H](c3ccc(O)cc3)N2C1=O	-0.288
COC(=O)[C@@]1(Cc2ccc(OC)cc2)[C@H]2c3cc(C(=O)N(C)C)n(Cc4cccc5ccccc45)c3C[C@H]2CN1C(=O)c1ccccc1	0.629
Cc1ccc(S[C@]2(C(=O)NC(C)C)CC(=O)N(Cc3ccccc3Cl)[C@@H]2c2ccc(CO)cc2I)cc1	-0.102
C[C@@H]1ON(c2cccc(C(=O)OC(C)(C)C)c2)[C@H](c2ccc(Br)cc2)[C@H]1C(=O)N1C(=O)OC[C@H]1Cc1ccccc1	-0.68
CCCC=C(CCC)[C@@H](NS(=O)(=O)c1cccs1)c1ccc(C(=O)OC)cc1	0.917
COC(=O)C(CC#Cc1ccc2c(c1)[C@]1(C(=O)N2)[C@H](C(=O)O)[C@H]2C(=O)O[C@H](c3ccccc3)[C@H](c3ccccc3)N2[C@@H]1c1ccc(O)cc1)C(=O)OC	0.217
COC(=O)c1c(CC[C@@H](CO)NC(=O)N2CCC[C@H]2Cn2cc(-c3ccccn3)nn2)oc(C(C)=O)c1C(=O)OC	0.793
O=C1O[C@H](c2ccccc2)[C@H](c2ccccc2)N2[C@H]1[C@@H](C(=O)O)[C@]1(C(=O)Nc3ccc(C#CCCO)cc31)[C@H]2c1ccc(O)cc1	-1.72
CCOC(=O)[C@H]1C/C=C/C[C@H](C(=O)OCC)C(=O)O[C@H]2[C@@H](OC)O[C@H](CO)[C@@H](OC(=O)Nc3ccc(C#N)cc3)[C@@H]2OC1=O	0.215
O=C1O[C@H](c2ccccc2)[C@H](c2ccccc2)N2[C@H]1[C@@H](C(=O)O)[C@]1(C(=O)Nc3ccc(C#CC4=CCCCC4)cc31)[C@H]2c1ccccc1OCCO	-6.51
COc1ccc([Si](C)(C)[C@@H]2[C@@H](CC(=O)N3Cc4ccccc4C[C@H]3CO)O[C@]3(C(=O)N(C)c4c(Br)cc(C)cc43)[C@H]2C)cc1	-0.178
COCCOC(=O)N1C(=O)[C@@]2(c3cc(C#CC4=CCCCC4)ccc31)[C@H](C(=O)Nc1nc3ccccc3s1)[C@H]1C(=O)O[C@H](c3ccccc3)[C@H](c3ccccc3)N1[C@@H]2c1ccccc1OCCO	-1.88
[N-]=[N+]=NCc1ccccc1C[C@]1(C(=O)N2CCOCC2)N=C(c2ccc(OCCCO)cc2)O[C@H]1c1ccccc1N=[N+]=[N-]	-7.46
